The reported numbers originate from patent US20230174523A1.

# test.system: TRAP1 enzyme (Homo sapiens)
# Sequence (Q12931 60-704): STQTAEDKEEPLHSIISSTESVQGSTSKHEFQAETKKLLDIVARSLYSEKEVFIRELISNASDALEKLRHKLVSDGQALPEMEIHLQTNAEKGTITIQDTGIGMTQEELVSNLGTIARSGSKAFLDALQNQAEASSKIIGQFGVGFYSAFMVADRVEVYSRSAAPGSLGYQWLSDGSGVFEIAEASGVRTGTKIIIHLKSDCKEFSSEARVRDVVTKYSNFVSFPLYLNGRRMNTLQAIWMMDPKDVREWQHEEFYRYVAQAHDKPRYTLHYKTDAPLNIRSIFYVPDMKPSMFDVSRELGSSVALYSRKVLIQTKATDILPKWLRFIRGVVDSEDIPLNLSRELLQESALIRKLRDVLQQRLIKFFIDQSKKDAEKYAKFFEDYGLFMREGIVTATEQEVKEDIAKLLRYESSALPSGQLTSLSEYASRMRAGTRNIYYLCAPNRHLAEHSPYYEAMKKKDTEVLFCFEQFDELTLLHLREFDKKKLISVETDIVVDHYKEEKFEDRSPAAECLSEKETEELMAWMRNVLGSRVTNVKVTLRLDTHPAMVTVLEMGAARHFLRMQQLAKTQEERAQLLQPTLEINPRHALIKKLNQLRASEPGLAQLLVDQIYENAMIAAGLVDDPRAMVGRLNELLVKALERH
# test.description: ADP Glo assay of TRAP1 ATPase activity
# Assay type: biochemical
# measurement.context: TRAP1 ATPase activation, 150 nM Trap1, 20 μM ATP, geometric mean; read-out: ADP GLO DRC: GeoMean EC50

| compound | EC50 |
| --- | --- |
| COc1ccc(NC(=O)c2cc3ccccc3[n+](C)c2)cc1S(=O)(=O)Nc1c(C)cccc1C [Compound 1356] | 20 to 100 µM |
| COc1ccc(NC(=O)c2cc3ccncc3s2)cc1S(=O)(=O)Nc1c(C)cccc1C [Compound 1043] | < 10 µM |
| COc1ccc(NC(=O)c2ncn(-c3ccccc3)n2)cc1S(=O)(=O)Nc1c(C)cccc1C [Compound 1270] | 10 to 20 µM |
| Cc1nc(C(=O)Nc2ccc(F)c(S(=O)(=O)Nc3ccc(Cl)cc3)c2)nn1-c1ccc(F)cc1 [Compound 835] | 10 to 20 µM |
| COCCn1ccc(C(=O)Nc2ccc(OC)c(S(=O)(=O)Nc3c(C)cccc3C)c2)n1 [Compound 1066] | 20 to 100 µM |
| COc1ccc(NC(=O)c2cccc3ncccc23)cc1S(=O)(=O)Nc1c(C)cccc1C [Compound 1219] | 20 to 100 µM |
| COc1cc(C(=O)Nc2ccc(F)c(S(=O)(=O)Nc3ccc(Cl)cc3)c2)cc(Cl)c1OC [Compound 775] | 10 to 20 µM |
| COc1ccc(NC(=O)c2c(-c3ccccc3)noc2C)cc1S(=O)(=O)Nc1c(C)cccc1C [Compound 1279] | < 10 µM |
| COc1ccc(NC(=O)c2cnc(-c3c(OC)cccc3OC)[nH]2)cc1S(=O)(=O)Nc1ccc(Cl)cc1 [Compound 1969] | 10 to 20 µM |
| COc1ccc(NC(=O)c2cnc(-c3cccs3)[nH]2)cc1S(=O)(=O)Nc1ccc(Cl)cc1 [Compound 1938] | < 10 µM |
| COc1ccc(NC(=O)c2cnc(-c3cccnc3OC)[nH]2)cc1S(=O)(=O)Nc1ccc(Cl)cc1 [Compound 1951] | < 10 µM |
| COc1ccc(NC(=O)c2coc(-c3ccccc3)n2)cc1S(=O)(=O)Nc1c(C)cccc1C [Compound 1301] | < 10 µM |
| COc1ccc(NC(=O)c2cnc(Cl)s2)cc1S(=O)(=O)Nc1c(C)cccc1C [Compound 1070] | < 10 µM |
| COc1ccc(NC(=O)c2ccc(Br)nc2F)cc1S(=O)(=O)Nc1c(C)cccc1C [Compound 1131] | 20 to 100 µM |
| COc1ccc(NC(=O)c2sc(-c3cccs3)nc2C)cc1S(=O)(=O)Nc1c(C)cccc1C [Compound 1156] | < 10 µM |
| COc1ccc(NC(=O)c2nnc(-c3ccccc3)[nH]2)cc1S(=O)(=O)Nc1ccc(Cl)cc1 [Compound 586] | 10 to 20 µM |
